Consider the following molecules; for each one, report its pIC50.
Molecular target: Mouse VCP (Mus musculus, UniProt Q01853)
Construct: histidine tag (N); made in house; host or cells: Sf-9 insect cells (baculovirus vector pVL1392)
Sequence (Q01853 whole entry): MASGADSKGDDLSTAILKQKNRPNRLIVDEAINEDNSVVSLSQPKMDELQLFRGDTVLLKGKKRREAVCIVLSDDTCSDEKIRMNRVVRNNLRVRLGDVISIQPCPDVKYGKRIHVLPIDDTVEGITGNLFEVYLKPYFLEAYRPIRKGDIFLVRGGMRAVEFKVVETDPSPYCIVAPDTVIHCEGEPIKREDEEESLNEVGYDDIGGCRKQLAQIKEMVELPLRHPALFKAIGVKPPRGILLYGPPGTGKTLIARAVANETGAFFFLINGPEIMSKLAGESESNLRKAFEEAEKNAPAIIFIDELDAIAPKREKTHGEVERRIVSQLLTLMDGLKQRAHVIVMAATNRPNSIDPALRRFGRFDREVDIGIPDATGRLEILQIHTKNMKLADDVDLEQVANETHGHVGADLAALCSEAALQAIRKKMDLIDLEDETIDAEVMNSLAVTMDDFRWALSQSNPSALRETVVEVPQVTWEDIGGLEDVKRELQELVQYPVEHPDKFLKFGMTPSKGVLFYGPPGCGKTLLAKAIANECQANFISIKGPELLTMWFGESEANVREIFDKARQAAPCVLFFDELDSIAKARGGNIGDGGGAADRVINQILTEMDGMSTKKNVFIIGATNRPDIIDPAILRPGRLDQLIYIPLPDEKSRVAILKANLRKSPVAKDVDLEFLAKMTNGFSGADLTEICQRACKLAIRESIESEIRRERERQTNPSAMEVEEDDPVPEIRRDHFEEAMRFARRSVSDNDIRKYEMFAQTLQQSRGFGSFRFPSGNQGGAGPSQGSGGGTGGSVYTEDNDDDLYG
Experiment: ATPase activity of purified His-tagged VCP, [γ-32P]ATP, liberated phosphate by liquid scintillation
Format: biochemical
Settings: compounds of Examples; ATPase inhibitory activity; 500 ng VCP, 100 μM ATP, 37° C., 10 minutes
Structures can show the parent of a compound that is named as a salt.
Please note pIC50 is a logarithmic value: minus log10 of concentration in mol/L. Answer with that number alone.

get_value(item= Nc1c(/N=N/c2ccc(-c3c(OCCCNC(=O)c4cccnc4Cl)ccc4c3sc3ccccc34)nc2)cc(S(=O)(=O)O)c2ccccc12 [Example 81, sodium salt] , readout=pIC50) returns 6.68

get_value(item= Cc1cccc(C)c1-c1ccc(/N=N/c2cc(S(=O)(=O)O)c3ccccc3c2N)cn1 [Example 90, sodium salt] , readout=pIC50) returns 6.95

get_value(item= Nc1c(/N=N/c2ccccc2Br)cc(S(=O)(=O)O)c2ccccc12 [Example 108, sodium salt] , readout=pIC50) returns 6.54

get_value(item= Nc1c(/N=N/c2ccc(-c3ccsc3)nc2)cc(S(=O)(=O)O)c2ccccc12 [Example 18, sodium salt] , readout=pIC50) returns 6.79

get_value(item= Nc1c(/N=N/c2cccnc2)cc(S(=O)(=O)O)c2ccccc12 [Example 1, sodium salt] , readout=pIC50) returns 5.80

get_value(item= CCCCCCOc1ccccc1-c1ccc(/N=N/c2cc(S(=O)(=O)O)c3ccccc3c2N)cn1 [Example 61, sodium salt] , readout=pIC50) returns 6.07

get_value(item= CC(C)Oc1ccc(-c2ccc(/N=N/c3cc(S(=O)(=O)O)c4ccccc4c3N)cn2)cc1 [Example 28, sodium salt] , readout=pIC50) returns 6.38

get_value(item= CC(=O)c1ccccc1-c1ccc(/N=N/c2cc(S(=O)(=O)O)c3ccccc3c2N)cn1 [Example 14, sodium salt] , readout=pIC50) returns 6.75

get_value(item= CCCCOc1c(C=O)cc(C)cc1-c1ccc(/N=N/c2cc(S(=O)(=O)O)c3ccccc3c2N)cn1 [Example 92, sodium salt] , readout=pIC50) returns 6.79

get_value(item= Nc1c(/N=N/c2ccc(OCC(F)(F)F)nc2)cc(S(=O)(=O)O)c2ccccc12 [Example 5, sodium salt] , readout=pIC50) returns 6.31

get_value(item= Nc1c(/N=N/c2cccc(OCc3cccnc3)c2)cc(S(=O)(=O)O)c2ccccc12 [Example 138, sodium salt] , readout=pIC50) returns 6.29

get_value(item= Nc1c(/N=N/c2ccc(Cl)cc2Cl)cc(S(=O)(=O)O)c2ccccc12 [Example 111, sodium salt] , readout=pIC50) returns 6.61

get_value(item= N#Cc1ccc(-c2ccc(/N=N/c3cc(S(=O)(=O)O)c4ccccc4c3N)cn2)cc1 [Example 45, sodium salt] , readout=pIC50) returns 6.28

get_value(item= Nc1c(/N=N/c2cccc(Br)c2)cc(S(=O)(=O)O)c2ccccc12 [Example 109, sodium salt] , readout=pIC50) returns 6.07

get_value(item= Nc1c(/N=N/c2ccccc2Cl)cc(S(=O)(=O)O)c2ccccc12 [Example 98, sodium salt] , readout=pIC50) returns 6.23

get_value(item= Cc1cc(-c2cccnc2)ncc1/N=N/c1cc(S(=O)(=O)O)c2ccccc2c1N [Example 53, sodium salt] , readout=pIC50) returns 5.94

get_value(item= Nc1c(/N=N/c2ccc(C(=O)Nc3ccc(CC(C(=O)O)C(=O)O)cc3)cc2)cc(S(=O)(=O)O)c2ccccc12 [Example 124, trisodium salt] , readout=pIC50) returns 5.40

get_value(item= Nc1c(/N=N/c2cccc(OCc3ccccn3)c2)cc(S(=O)(=O)O)c2ccccc12 [Example 137, sodium salt] , readout=pIC50) returns 6.21

get_value(item= Cc1cc(/N=N/c2cc(S(=O)(=O)O)c3ccccc3c2N)cnc1-c1cccc2c1sc1ccccc12 [Example 85, sodium salt] , readout=pIC50) returns 5.98

get_value(item= Nc1c(/N=N/c2ccc(-c3c(OCc4cccnc4)ccc4c3sc3ccccc34)nc2)cc(S(=O)(=O)O)c2ccccc12 [Example 80, sodium salt] , readout=pIC50) returns 6.48

get_value(item= COc1cccc(-c2ccc(/N=N/c3cc(S(=O)(=O)O)c4ccccc4c3N)cn2)c1 [Example 32, sodium salt] , readout=pIC50) returns 6.37

get_value(item= Nc1c(/N=N/c2ccc(-c3cccc4ccccc34)nc2)cc(S(=O)(=O)O)c2ccccc12 [Example 38, sodium salt] , readout=pIC50) returns 6.63

get_value(item= Nc1c(/N=N/c2ccc(-c3cncc4ccccc34)cc2)cc(S(=O)(=O)O)c2ccccc12 [Example 127, sodium salt] , readout=pIC50) returns 6.53

get_value(item= CCCCc1ccc(-c2ccc(/N=N/c3cc(S(=O)(=O)O)c4ccccc4c3N)cn2)cc1 [Example 62, sodium salt] , readout=pIC50) returns 6.07

get_value(item= Cc1ccc(-c2ccccc2)c(-c2ccc(/N=N/c3cc(S(=O)(=O)O)c4ccccc4c3N)cn2)c1 [Example 71, sodium salt] , readout=pIC50) returns 6.59

get_value(item= Nc1c(/N=N/c2ccc(-c3c(OCCCO)ccc4c3sc3ccccc34)nc2)cc(S(=O)(=O)O)c2ccccc12 [Example 82, sodium salt] , readout=pIC50) returns 6.54

get_value(item= CCCCOc1ccccc1-c1ccc(/N=N/c2cc(S(=O)(=O)O)c3ccccc3c2N)cn1 [Example 60, sodium salt] , readout=pIC50) returns 6.60

get_value(item= Cc1cc(F)ccc1-c1ncc(/N=N/c2cc(S(=O)(=O)O)c3ccccc3c2N)cc1C [Example 79, sodium salt] , readout=pIC50) returns 6.10

* * *

Target: Mouse VCP (Mus musculus, UniProt Q01853)
Construct: histidine tag (N); made in house; host or cells: Sf-9 insect cells (baculovirus vector pVL1392)
Assay: ATPase activity of purified His-tagged VCP, [γ-32P]ATP, liberated phosphate by liquid scintillation
Type: biochemical
Conditions: compounds of Examples; ATPase inhibitory activity; 500 ng VCP, 100 μM ATP, 37° C., 10 minutes
Where a name gives a salt, the structure may show the parent alone.
readout: IC50 (nM)
Note: unit nM is implicit; provide only the numeric part.

get_value(item= N#Cc1cc(Cl)ccc1/N=N/c1cc(S(=O)(=O)O)c2ccccc2c1N [Example 118, sodium salt] , readout=IC50) returns 105

get_value(item= CCCOc1cccc(F)c1-c1ccc(/N=N/c2cc(S(=O)(=O)O)c3ccccc3c2N)cn1 [Example 56, sodium salt] , readout=IC50) returns 246

get_value(item= Cc1cc(/N=N/c2cc(S(=O)(=O)O)c3ccccc3c2N)cnc1-c1ccccc1-c1ccccc1 [Example 86, sodium salt] , readout=IC50) returns 552

get_value(item= COc1ccc(-c2ccc(/N=N/c3cc(S(=O)(=O)O)c4ccccc4c3N)cn2)cc1 [Example 26, sodium salt] , readout=IC50) returns 304

get_value(item= Nc1c(/N=N/c2ccc(-c3cccc4c3sc3ccccc34)nc2)cc(S(=O)(=O)O)c2ccccc12 [Example 43, potassium salt] , readout=IC50) returns 1040

get_value(item= Nc1c(/N=N/c2ccc(/C=C/c3ccccc3)nc2)cc(S(=O)(=O)O)c2ccccc12 [Example 30, sodium salt] , readout=IC50) returns 1140

get_value(item= Nc1c(/N=N/c2ccc(-c3cccc4c3Sc3ccccc3S4)nc2)cc(S(=O)(=O)O)c2ccccc12 [Example 76, sodium salt] , readout=IC50) returns 1410

* * *

Target: Mouse VCP (Mus musculus)
Construct: histidine tag (N); made in house; host or cells: Sf-9 insect cells (baculovirus vector pVL1392)
Test: ATPase activity of purified His-tagged VCP, [γ-32P]ATP, liberated phosphate by liquid scintillation
Type: biochemical
Details: compounds of Examples; ATPase inhibitory activity; 500 ng VCP, 100 μM ATP, 37° C., 10 minutes
Structures can show the parent of a compound that is named as a salt.
readout: pIC50
Please note pIC50 is a logarithmic value: minus log10 of concentration in mol/L. Answer with that number alone.

Tested on Mouse VCP (Mus musculus): Cc1ccc(-c2cccc(Cl)c2)c(-c2ccc(/N=N/c3cc(S(=O)(=O)O)c4ccccc4c3N)cn2)c1 [Example 75, sodium salt] . Observed pIC50: 6.03

Tested on Mouse VCP (Mus musculus): Cc1ccc(-c2ccc(/N=N/c3cc(S(=O)(=O)O)c4ccccc4c3N)cn2)cc1 [Example 8, sodium salt] . Observed pIC50: 6.37

Tested on Mouse VCP (Mus musculus): Nc1c(/N=N/c2ccc(F)cc2Cl)cc(S(=O)(=O)O)c2ccccc12 [Example 119, sodium salt] . Observed pIC50: 6.13

Tested on Mouse VCP (Mus musculus): Nc1c(/N=N/c2cccc(F)c2)cc(S(=O)(=O)O)c2ccccc12 [Example 101, sodium salt] . Observed pIC50: 5.75

Tested on Mouse VCP (Mus musculus): Nc1c(/N=N/c2ccc(-c3ccccc3)nc2)cc(S(=O)(=O)O)c2ccccc12 [Example 7, sodium salt] . Observed pIC50: 6.64

Tested on Mouse VCP (Mus musculus): CC(C)Oc1ccccc1-c1ccc(/N=N/c2cc(S(=O)(=O)O)c3ccccc3c2N)cn1 [Example 27, sodium salt] . Observed pIC50: 6.84

Tested on Mouse VCP (Mus musculus): COC(=O)CCC(=O)c1ccc(-c2ccc(/N=N/c3cc(S(=O)(=O)O)c4ccccc4c3N)cn2)cc1 [Example 40, sodium salt] . Observed pIC50: 6.48
